system: human phosphoglucose isomerase (hPGI) / autocrine motility factor (Homo sapiens)
measurement-description: end-point isomerization kinetics
measured-parameter: Ki (µM)
Use µM as the unit, but write only the number.

Input: May I ask what Ki has been recorded for O=C(O)[C@H](O)[C@@H](O)[C@H](O)[C@H](O)COP(=O)(O)O [6P-GA, 6-phosphogluconate] ?
Output: 12
